SYSTEM UNDER TEST: PARP-1 enzyme (Homo sapiens, UniProt P09874)
Construct: made in house
Sequence (P09874 whole entry): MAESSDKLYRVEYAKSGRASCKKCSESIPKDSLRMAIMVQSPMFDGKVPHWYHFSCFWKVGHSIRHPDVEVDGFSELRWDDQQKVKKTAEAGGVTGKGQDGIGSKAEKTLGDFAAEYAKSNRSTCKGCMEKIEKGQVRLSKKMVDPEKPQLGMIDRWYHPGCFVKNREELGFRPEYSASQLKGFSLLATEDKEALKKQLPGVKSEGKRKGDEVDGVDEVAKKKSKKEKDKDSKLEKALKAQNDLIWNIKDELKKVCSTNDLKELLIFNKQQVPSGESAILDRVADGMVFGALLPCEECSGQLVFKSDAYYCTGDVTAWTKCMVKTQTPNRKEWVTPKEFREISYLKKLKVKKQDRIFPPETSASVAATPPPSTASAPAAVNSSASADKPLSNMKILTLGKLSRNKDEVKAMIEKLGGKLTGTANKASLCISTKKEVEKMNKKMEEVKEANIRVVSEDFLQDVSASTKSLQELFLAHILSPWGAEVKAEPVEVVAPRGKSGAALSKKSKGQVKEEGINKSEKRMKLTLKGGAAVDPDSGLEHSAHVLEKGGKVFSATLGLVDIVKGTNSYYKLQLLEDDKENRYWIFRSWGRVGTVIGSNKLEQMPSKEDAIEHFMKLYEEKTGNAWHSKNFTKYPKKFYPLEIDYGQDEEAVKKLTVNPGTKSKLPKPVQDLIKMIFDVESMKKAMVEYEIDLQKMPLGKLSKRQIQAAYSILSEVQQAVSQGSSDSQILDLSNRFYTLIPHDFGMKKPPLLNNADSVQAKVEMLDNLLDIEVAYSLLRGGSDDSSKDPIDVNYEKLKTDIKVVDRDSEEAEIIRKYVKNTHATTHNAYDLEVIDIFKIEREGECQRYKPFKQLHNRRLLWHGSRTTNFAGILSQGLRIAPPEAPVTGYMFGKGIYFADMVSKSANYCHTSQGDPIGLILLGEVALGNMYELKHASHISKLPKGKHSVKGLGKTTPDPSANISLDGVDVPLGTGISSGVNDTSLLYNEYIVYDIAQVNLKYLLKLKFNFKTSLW
ASSAY INFO: In vitro Scintillation Proximity Assay (SPA) for PARP-1 inhibitory activity
Type: biochemical
EXPERIMENTAL CONTEXT: [3H]-NAD+ as ADP-ribosyl donor, biotinylated histones, nicked DNA; read-out: In vitro SPA pIC50 (converted)
MEASUREMENT LABEL: IC50 (nM)

Example entries begin here.
COMPOUND | IC50, nM
CCc1nc2cc(C(C(C)C)n3cncn3)ccc2[nH]c1=O (centres unmarked) | 438
CC(C)C(c1ccc2[nH]c(=O)c(-c3ccsc3)nc2c1)n1ccnc1 (centres unmarked) | 561
CCCCC(c1ccc2[nH]c(=O)c(C)nc2c1)n1ccnc1 (centres unmarked) | 1000
CCc1cc2cc(CCNCCCN(C)Cc3ccccc3)ccc2[nH]c1=O | 687
CCc1cc2cc(C(O)CN(C)C)ccc2[nH]c1=O (centres unmarked) | 212
CCc1nc2cc(C(NCCCN(C)Cc3ccccc3)C(C)C)ccc2[nH]c1=O (centres unmarked) | 499
CCc1nc2cc(C(=O)C(C)C)ccc2[nH]c1=O | 743
CCOC(=O)Cc1ccc2[nH]c(=O)c(CC)nc2c1 | 975

I = CCc1nc2cc(C(NC=O)C(C)C)ccc2[nH]c1=O (centres unmarked)
II = CCc1cc2cc(CCNCCCN3CCCCC3)ccc2[nH]c1=O
Out of I and II , name the one with the higher IC50. Reply briefly: the label of your chosen item. II
(II: 327 nM, I: 221 nM)

A = CCc1cc2cc(C(O)C3CC=CCC3)ccc2[nH]c1=O (centres unmarked)
B = CC(C)C(c1ccc2[nH]c(=O)c(-c3ccsc3)nc2c1)n1cncn1 (centres unmarked)
C = CCc1nc2cc(C(O)C(C)C)ccc2[nH]c1=O (centres unmarked)
D = Cc1cc2cc(C(O)(CCN(C)C)c3ccccn3)ccc2[nH]c1=O (centres unmarked)
Arrange the 4 compounds by rising IC50, starting with the smallest. When ranking, write the labels in the order the request describes. A, D, C, B
(A: 198 nM, D: 470 nM, C: 746 nM, B: 1430 nM)
